Below, each of the molecules is paired with its reported IC50 value.
# target.system: human ROCKα/ROCKII mix (Homo sapiens)
# Construct: purchased Upstate Biotechnology 14-451
# Sequence (O75116 11-552 limits assumed): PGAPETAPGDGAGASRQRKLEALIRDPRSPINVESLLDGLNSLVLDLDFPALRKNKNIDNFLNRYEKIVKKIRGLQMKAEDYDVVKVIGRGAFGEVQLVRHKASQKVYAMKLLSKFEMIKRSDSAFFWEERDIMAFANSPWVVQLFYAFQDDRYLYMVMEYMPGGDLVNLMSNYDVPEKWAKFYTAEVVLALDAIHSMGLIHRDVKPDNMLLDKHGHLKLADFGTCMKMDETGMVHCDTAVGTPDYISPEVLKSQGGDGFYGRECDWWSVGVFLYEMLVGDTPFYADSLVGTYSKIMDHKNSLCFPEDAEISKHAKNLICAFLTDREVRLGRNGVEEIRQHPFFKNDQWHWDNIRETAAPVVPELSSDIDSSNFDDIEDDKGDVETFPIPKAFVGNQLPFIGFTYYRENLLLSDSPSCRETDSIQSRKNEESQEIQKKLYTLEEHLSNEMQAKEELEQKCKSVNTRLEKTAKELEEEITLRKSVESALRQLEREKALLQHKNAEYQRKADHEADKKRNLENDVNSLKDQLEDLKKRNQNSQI
# assay.protocol: Biochemical assay for ROCK (fluorescence polarization, ROCK IMAP Kit)

These solved cases illustrate the format of a correct answer.
CN(CC(N)c1ccc(C(=O)Nc2ccncc2)cc1)C(=O)C1CCOc2ccc(F)cc21 (stereo not shown) [Compound 516]	0.5 to 5 µM
CC(C)(C(=O)N1CCCC1C(N)c1ccc(C(=O)Nc2ccncc2)cc1)c1ccc(Cl)c(Cl)c1 (stereo not shown) [Compound 593]	0.5 to 5 µM
COc1cccc(NC(=O)NCC(N)c2ccc(C(=O)Nc3ccncc3)cc2)c1 (stereo not shown) [Compound 29]	0.05 to 0.5 µM
Cc1ccc(CNC(=O)NCC(N)c2ccc(C(=O)Nc3ccncc3)cc2)cc1 (stereo not shown) [Compound 8]	0.05 to 0.5 µM
CN(CC(N)c1ccc(C(=O)Nc2ccncc2)cc1)C(=O)C1(c2ccc(F)cc2)CCC1 (stereo not shown) [Compound 474]	0.5 to 5 µM
CC(C)(C(=O)NC[C@H](N)c1ccc(C(=O)Nc2ccncc2)cc1)c1ccc(Cl)cc1 [Compound 400]	0.5 to 5 µM
CN(CC(N)c1ccc(C(=O)Nc2ccncc2)cc1)C(=O)Cc1cccc(Cl)c1F (stereo not shown) [Compound 501]	0.5 to 5 µM
NC(CNC(=O)Nc1ccc(F)cc1)c1ccc(C(=O)Nc2ccncc2)cc1 (stereo not shown) [Compound 19]	0.05 to 0.5 µM
CC(C)(C(=O)N1CCCC1C(N)c1ccc(C(=O)Nc2ccncc2)cc1)c1ccc(F)c(Cl)c1 (stereo not shown) [Compound 606]	0.5 to 5 µM
NC(c1ccc(C(=O)Nc2ccncc2)cc1)C1CCCN1C(=O)C1CCOc2ccccc21 (stereo not shown) [Compound 615]	0.5 to 5 µM

Short answer for NC(c1ccc(C(=O)Nc2ccncc2)cc1)C1CCCN1C(=O)C1(c2ccc(Cl)cc2)CCCC1 (stereo not shown) [Compound 566] : IC50 was 0.5 to 5 µM

Short answer for CN(CC(N)c1ccc(C(=O)Nc2ccncc2)cc1)C(=O)C1CCSc2ccccc21 (stereo not shown) [Compound 517] : IC50 was 5 to 50 µM

Short answer for NC(c1ccc(C(=O)Nc2ccncc2)cc1)C1CCCN1C(=O)C1CCCCc2ccc(F)cc21 (stereo not shown) [Compound 620] : IC50 was 5 to 50 µM

Short answer for CC(C)(C(=O)N1CCCC1C(N)c1ccc(C(=O)Nc2ccncc2)cc1)c1ccc(F)cc1 (stereo not shown) [Compound 573] : IC50 was 0.5 to 5 µM

Short answer for NC(c1ccc(C(=O)Nc2ccncc2)cc1)C1CCCN1C(=O)Cc1c(F)cccc1F (stereo not shown) [Compound 584] : IC50 was 0.5 to 5 µM

Short answer for COc1ccccc1CC(=O)N1CCCC1C(N)c1ccc(C(=O)Nc2ccncc2)cc1 (stereo not shown) [Compound 526] : IC50 was 0.5 to 5 µM

The values you see were collected from patent US20100168102A9.
